Parameter IC50: see the listing below.
# Test system: PAN-3 (human pancreatic cancer)
# method summary: Tumor cell growth inhibition (crystal violet), PAN-3
# Type: cell-based
# cond: 72 hours, read-out: Concentrations for 50% growth inhibition of various tumor cells (IC50)
readout kind: IC50 (µM)

Cc1oc2nc1-c1nc(co1)-c1nc(co1)-c1nc(co1)-c1nc(co1)-c1nc(co1)C1=NC(CS1)c1nc-2c(C)o1 (centres unmarked) [Substance GM-95]
7.09
O=c1[nH]cc(F)c(=O)[nH]1 [5-fluorouracil, reference compound]
8.82

###

# Tested on: PC-3 (human prostate cancer)
# method summary: Tumor cell growth inhibition (crystal violet), PC-3
# Type: cell-based
# cond: 72 hours, read-out: Concentrations for 50% growth inhibition of various tumor cells (IC50)
pIC50: −log10 of the molar value.
readout kind: pIC50

Cc1oc2nc1-c1nc(co1)-c1nc(co1)-c1nc(co1)-c1nc(co1)-c1nc(co1)C1=NC(CS1)c1nc-2c(C)o1 (centres unmarked)
5.05
O=c1[nH]cc(F)c(=O)[nH]1 [5-fluorouracil, reference compound]
5.24

###

# Test system: HT-29 (human colon cancer)
# method summary: Tumor cell growth inhibition (crystal violet), HT-29
# Format: cell-based
# cond: 72 hours, read-out: Concentrations for 50% growth inhibition of various tumor cells (IC50)
pIC50: −log10 of the molar value.
readout kind: pIC50

Cc1oc2nc1-c1nc(co1)-c1nc(co1)-c1nc(co1)-c1nc(co1)-c1nc(co1)C1=NC(CS1)c1nc-2c(C)o1 (centres unmarked)
5.15
O=c1[nH]cc(F)c(=O)[nH]1 [5-fluorouracil, reference compound]
5.68

###

# System: ZR75-1 (human breast cancer)
# method summary: Tumor cell growth inhibition (crystal violet), ZR75-1
# Assay type: cell-based
# cond: ZR-75-1, 72 hours, read-out: Concentrations for 50% growth inhibition of various tumor cells (IC50)
readout kind: IC50 (µM)

Cc1oc2nc1-c1nc(co1)-c1nc(co1)-c1nc(co1)-c1nc(co1)-c1nc(co1)C1=NC(CS1)c1nc-2c(C)o1 (centres unmarked)
4.04
O=c1[nH]cc(F)c(=O)[nH]1 [5-fluorouracil, reference compound]
3.63

###

# Test system: OVCAR-3 (human ovarian cancer)
# method summary: Tumor cell growth inhibition (crystal violet), OVCAR-3
# Format: cell-based
# cond: 72 hours, read-out: Concentrations for 50% growth inhibition of various tumor cells (IC50)
pIC50: −log10 of the molar value.
A collection of compounds and their measured pIC50
readout kind: pIC50

Cc1oc2nc1-c1nc(co1)-c1nc(co1)-c1nc(co1)-c1nc(co1)-c1nc(co1)C1=NC(CS1)c1nc-2c(C)o1 (centres unmarked)
5.47
O=c1[nH]cc(F)c(=O)[nH]1 [5-fluorouracil, reference compound]
6.43
